assay: Toxicity liver stage against HepG2, at 10uM; format: cell-based; design: test concentration 10 uM, cell line HepG2-A16-CD81EGFP; details: human, HepG2-A16-CD81EGFP cells; read-out: INHIBITION
Entries and their cytotoxicity at 10 µM values follow.
reported_endpoint: cytotoxicity at 10 µM (%)

- compound: "CC(=O)Cc1c(C)nn(-c2cncc(C(N)=O)c2)c1C"
  reported_endpoint: "cytotoxicity at 10 µM"
  value_measured: -17.5
- compound: "O=S(=O)(c1ccc(F)cc1)N1CCCC1c1cc[nH]n1 (configuration not stated)"
  reported_endpoint: "cytotoxicity at 10 µM"
  value_measured: -5.94
- compound: "Cc1ncc(CN(C)C(=O)Nc2cccc(N3CCNC3=O)c2)s1"
  reported_endpoint: "cytotoxicity at 10 µM"
  value_measured: 9.97
- compound: "CC(=O)N1CCN(c2cc(N3CCOCC3)cnn2)CC1"
  reported_endpoint: "cytotoxicity at 10 µM"
  value_measured: -7.09
- compound: "CCc1nc(C2CCCN2CC(=O)N2CCc3ccccc32)no1 (configuration not stated)"
  reported_endpoint: "cytotoxicity at 10 µM"
  value_measured: -11.2
- compound: "CNC(=O)C1Cn2ccnc2C2(CCN(Cc3cccs3)CC2)O1 (configuration not stated)"
  reported_endpoint: "cytotoxicity at 10 µM"
  value_measured: -70.6
- compound: "O=C(C1CCOC1)N1CCC2(CCCNC2)CC1 (configuration not stated)"
  reported_endpoint: "cytotoxicity at 10 µM"
  value_measured: -1.74
- compound: "Cc1cc(O)nc(C2CN(CC3(O)CCOCC3)CCO2)n1 (configuration not stated)"
  reported_endpoint: "cytotoxicity at 10 µM"
  value_measured: -18.3
- compound: "Cc1nnc(CN2CCOC(c3ccc(Cl)c(Cl)c3)C2)o1 (configuration not stated)"
  reported_endpoint: "cytotoxicity at 10 µM"
  value_measured: -1.11
- compound: "CSCCC(=O)NCc1cc2n(n1)CCCN(C1CCCCC1)C2"
  reported_endpoint: "cytotoxicity at 10 µM"
  value_measured: 19.9
- compound: "CCn1nnc2c1C(COC)CN(Cc1ccsc1)C2 (configuration not stated)"
  reported_endpoint: "cytotoxicity at 10 µM"
  value_measured: 2.3
- compound: "Cc1cnc(C(=O)N2CCc3c(nc(-c4ccncc4)[nH]c3=O)C2)cn1"
  reported_endpoint: "cytotoxicity at 10 µM"
  value_measured: 8.62
